target: SSTR2 Receptor (cloned somatostatin receptor); experiment: inhibition of radioligand binding to cloned SSTR2
Sequence (P30875 whole entry): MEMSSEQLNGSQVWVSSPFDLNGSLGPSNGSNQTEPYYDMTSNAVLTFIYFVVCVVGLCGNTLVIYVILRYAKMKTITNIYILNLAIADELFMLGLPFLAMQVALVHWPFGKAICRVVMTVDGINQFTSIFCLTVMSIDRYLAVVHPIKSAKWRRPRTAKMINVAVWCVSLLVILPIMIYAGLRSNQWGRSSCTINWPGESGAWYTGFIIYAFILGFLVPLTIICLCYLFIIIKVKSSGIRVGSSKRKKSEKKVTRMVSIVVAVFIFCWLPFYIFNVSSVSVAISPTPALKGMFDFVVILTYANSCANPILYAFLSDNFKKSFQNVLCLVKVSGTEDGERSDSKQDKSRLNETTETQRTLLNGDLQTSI
Positions of bridges follow the written chain, without caps; N, C: chain ends. Non-standard residues stand in square brackets, D forms with d. No end group written: not given here. AlaL = alanine half of a lanthionine (monosulfide) bridge; Thr(ol) = C[C@@H](O)[C@H](N)CO
For each entry below, report its IC50 value.
Unit nM implied. Number only.

Q. IC50 lookup needed for [dF]CF[dW]KTC[Thr(ol)] (disulfide 2-7) [Sandostatin] , thanks.
A. 2.4

Q. Fill in: IC50 of H-[dF][AlaL]F[dW]KT[AlaL]T-NH2 (thioether 2-7) [H-D-Phe-c[AlaLPhe-D-Trp-Lys-Thr-AlaL]-Thr-NH2] is ___
A. 10

Q. Please look up its IC50: H-[dF][AlaL]F[dW]KT[AlaL][Thr(ol)] (thioether 2-7) [H-D-Phe-c[AlaLPhe-D-Trp-Lys-Thr-AlaL]-Thr-ol]
A. 5

Q. # get_value(readout='IC50', item= AGCKNFFWKTFTSC (peptide, UniProt P61278 103-116, looked up, disulfide 3-14 (inferred)) [Somatostatin-14] )
A. 0.28

Entry source: patent US20020165132A1
